Molecular target: Carboxy-terminal domain RNA polymerase II polypeptide A small phosphatase 1 (Homo sapiens)
Sequence (Q9GZU7 whole entry, the tested form may be a part): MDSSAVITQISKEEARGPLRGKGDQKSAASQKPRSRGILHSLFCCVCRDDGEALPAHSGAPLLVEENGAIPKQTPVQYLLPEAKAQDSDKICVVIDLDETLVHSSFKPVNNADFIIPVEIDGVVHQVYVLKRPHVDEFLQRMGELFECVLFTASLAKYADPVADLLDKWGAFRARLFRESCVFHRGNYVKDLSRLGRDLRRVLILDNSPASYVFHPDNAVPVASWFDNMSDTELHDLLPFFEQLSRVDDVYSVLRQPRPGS
Experiment: CTDSP1 inhibitors, concentration-response, biochemical, absorbance readout, ultra-high-throughput screen actives (AID 540297)
Type: functional
The source made the active and inactive calls. Rule as the data show it: actives have a measured IC50 and inactives only a lower limit.
reportedEndpoint: IC50

Query: State the recorded IC50 for this entry: "CCOc1ccc(OCCCC(=O)N2CCN(S(=O)(=O)c3ccc(Cl)cc3)CC2)cc1"
Result: 6.6 µM (active)

Query: Would you kindly share the measured IC50 for "CN(C)c1ccc(C(=O)OCC(=O)Nc2ccc(S(N)(=O)=O)cc2)cc1" ?
Result: 8.63 µM (active)

Query: Look up IC50: "Cc1cccc(N2NC(=O)/C(=C/c3ccc(-c4ccc(Cl)c(C(=O)O)c4)o3)C2=O)c1"
Result: 3.84 µM (active)

Query: # IC50 lookup, item "N#CCC(=O)N/N=C/c1ccc(Sc2nc3ccccc3s2)o1"
Result: 9.4 µM (active)

Query: I have this compound here, CC(=O)OCC1=C(C(=O)O)N2C(=O)C(NC(=O)c3ccc(COc4cccc(Cl)c4Cl)o3)C2SC1 (stereo not given) , and I need its recorded IC50.
Result: 5.07 µM (active)
